Data credit: patent US20210338782A1

# run description: Photostability of TBR-760 salt forms (ICH Q1B, visible and UV light), appearance and UPLC purity
# Type: physicochemical
# settings: dark control in visible light chamber, amber vial wrapped in aluminum foil
Structures can show the parent of a compound that is named as a salt.
outcome measure: Appearance, Dark Crtl-Light

[[record]]
compound = "CCCN1C[C@H](CSCC(=O)NCCCC[C@@H](NC(=O)CSC[C@@H]2C[C@@H]3c4cccc5[nH]cc(c45)C[C@H]3N(CCC)C2)C(=O)N[C@H]2CSSC[C@@H](C(=O)N[C@H](C(N)=O)[C@@H](C)O)NC(=O)[C@H](CC)NC(=O)[C@H](CCCCN)NC(=O)[C@@H](Cc3c[nH]c4ccccc34)NC(=O)[C@H](Cc3ccc(O)cc3)NC2=O)C[C@@H]2c3cccc4[nH]cc(c34)C[C@H]21 [TBR-760 chloride, hydrochloride salt]"
reported_result = "white"


---

Hi there, I'd appreciate the recorded Purity, T = 4 wk for every entry that follows.
# run description: Solid state (thermolytic) stability of TBR-760 salt forms, open container, UPLC peak purity and appearance
# Assay type: physicochemical
# settings: UPLC peak purity, 25° C. at 60% RH, open container, 4 wk
Structures can show the parent of a compound that is named as a salt.
Answers are plain numbers.

[[record]]
molecule = "CCCN1C[C@H](CSCC(=O)NCCCC[C@@H](NC(=O)CSC[C@@H]2C[C@@H]3c4cccc5[nH]cc(c45)C[C@H]3N(CCC)C2)C(=O)N[C@H]2CSSC[C@@H](C(=O)N[C@H](C(N)=O)[C@@H](C)O)NC(=O)[C@H](CC)NC(=O)[C@H](CCCCN)NC(=O)[C@@H](Cc3c[nH]c4ccccc34)NC(=O)[C@H](Cc3ccc(O)cc3)NC2=O)C[C@@H]2c3cccc4[nH]cc(c34)C[C@H]21 [TBR-760 mesylate]"
reported_result = 97.77

[[record]]
molecule = "CCCN1C[C@H](CSCC(=O)NCCCC[C@@H](NC(=O)CSC[C@@H]2C[C@@H]3c4cccc5[nH]cc(c45)C[C@H]3N(CCC)C2)C(=O)N[C@H]2CSSC[C@@H](C(=O)N[C@H](C(N)=O)[C@@H](C)O)NC(=O)[C@H](CC)NC(=O)[C@H](CCCCN)NC(=O)[C@@H](Cc3c[nH]c4ccccc34)NC(=O)[C@H](Cc3ccc(O)cc3)NC2=O)C[C@@H]2c3cccc4[nH]cc(c34)C[C@H]21 [TBR-760 acetate]"
reported_result = 98.09

[[record]]
molecule = "CCCN1C[C@H](CSCC(=O)NCCCC[C@@H](NC(=O)CSC[C@@H]2C[C@@H]3c4cccc5[nH]cc(c45)C[C@H]3N(CCC)C2)C(=O)N[C@H]2CSSC[C@@H](C(=O)N[C@H](C(N)=O)[C@@H](C)O)NC(=O)[C@H](CC)NC(=O)[C@H](CCCCN)NC(=O)[C@@H](Cc3c[nH]c4ccccc34)NC(=O)[C@H](Cc3ccc(O)cc3)NC2=O)C[C@@H]2c3cccc4[nH]cc(c34)C[C@H]21 [TBR-760 sulfate]"
reported_result = 97.75


Here's the next entry for you.
Recorded Purity, T = 4 wk (molecule CCCN1C[C@H](CSCC(=O)NCCCC[C@@H](NC(=O)CSC[C@@H]2C[C@@H]3c4cccc5[nH]cc(c45)C[C@H]3N(CCC)C2)C(=O)N[C@H]2CSSC[C@@H](C(=O)N[C@H](C(N)=O)[C@@H](C)O)NC(=O)[C@H](CC)NC(=O)[C@H](CCCCN)NC(=O)[C@@H](Cc3c[nH]c4ccccc34)NC(=O)[C@H](Cc3ccc(O)cc3)NC2=O)C[C@@H]2c3cccc4[nH]cc(c34)C[C@H]21 [TBR-760 tosylate] ): 97.39

---

# run description: Photostability of TBR-760 salt forms (ICH Q1B, visible and UV light), appearance and UPLC purity
# Format: physicochemical
# settings: dark control in UV chamber, amber vial wrapped in aluminum foil
Structures can show the parent of a compound that is named as a salt.
outcome measure: Appearance, Dark Ctrl-UV

[[record]]
compound = "CCCN1C[C@H](CSCC(=O)NCCCC[C@@H](NC(=O)CSC[C@@H]2C[C@@H]3c4cccc5[nH]cc(c45)C[C@H]3N(CCC)C2)C(=O)N[C@H]2CSSC[C@@H](C(=O)N[C@H](C(N)=O)[C@@H](C)O)NC(=O)[C@H](CC)NC(=O)[C@H](CCCCN)NC(=O)[C@@H](Cc3c[nH]c4ccccc34)NC(=O)[C@H](Cc3ccc(O)cc3)NC2=O)C[C@@H]2c3cccc4[nH]cc(c34)C[C@H]21 [TBR-760 chloride, hydrochloride salt]"
reported_result = "white"


---

Exercise: for every item that follows, state its recorded Purity, T = 4 wk.
# run description: Solid state (thermolytic) stability of TBR-760 salt forms, open container, UPLC peak purity and appearance
# Type: physicochemical
# settings: UPLC peak purity, 60° C., open dish, 4 wk
Structures can show the parent of a compound that is named as a salt.
Answers are plain numbers.

Use the examples below as a reference point.
[[record]]
compound = "CCCN1C[C@H](CSCC(=O)NCCCC[C@@H](NC(=O)CSC[C@@H]2C[C@@H]3c4cccc5[nH]cc(c45)C[C@H]3N(CCC)C2)C(=O)N[C@H]2CSSC[C@@H](C(=O)N[C@H](C(N)=O)[C@@H](C)O)NC(=O)[C@H](CC)NC(=O)[C@H](CCCCN)NC(=O)[C@@H](Cc3c[nH]c4ccccc34)NC(=O)[C@H](Cc3ccc(O)cc3)NC2=O)C[C@@H]2c3cccc4[nH]cc(c34)C[C@H]21 [TBR-760 mesylate]"
reported_result = 97.17

[[record]]
compound = "CCCN1C[C@H](CSCC(=O)NCCCC[C@@H](NC(=O)CSC[C@@H]2C[C@@H]3c4cccc5[nH]cc(c45)C[C@H]3N(CCC)C2)C(=O)N[C@H]2CSSC[C@@H](C(=O)N[C@H](C(N)=O)[C@@H](C)O)NC(=O)[C@H](CC)NC(=O)[C@H](CCCCN)NC(=O)[C@@H](Cc3c[nH]c4ccccc34)NC(=O)[C@H](Cc3ccc(O)cc3)NC2=O)C[C@@H]2c3cccc4[nH]cc(c34)C[C@H]21 [TBR-760 acetate]"
reported_result = 82.32

[[record]]
compound = "CCCN1C[C@H](CSCC(=O)NCCCC[C@@H](NC(=O)CSC[C@@H]2C[C@@H]3c4cccc5[nH]cc(c45)C[C@H]3N(CCC)C2)C(=O)N[C@H]2CSSC[C@@H](C(=O)N[C@H](C(N)=O)[C@@H](C)O)NC(=O)[C@H](CC)NC(=O)[C@H](CCCCN)NC(=O)[C@@H](Cc3c[nH]c4ccccc34)NC(=O)[C@H](Cc3ccc(O)cc3)NC2=O)C[C@@H]2c3cccc4[nH]cc(c34)C[C@H]21 [TBR-760 tosylate]"
reported_result = 96.52


Consider the additional compound presented here.
// field: Purity, T = 4 wk; key: CCCN1C[C@H](CSCC(=O)NCCCC[C@@H](NC(=O)CSC[C@@H]2C[C@@H]3c4cccc5[nH]cc(c45)C[C@H]3N(CCC)C2)C(=O)N[C@H]2CSSC[C@@H](C(=O)N[C@H](C(N)=O)[C@@H](C)O)NC(=O)[C@H](CC)NC(=O)[C@H](CCCCN)NC(=O)[C@@H](Cc3c[nH]c4ccccc34)NC(=O)[C@H](Cc3ccc(O)cc3)NC2=O)C[C@@H]2c3cccc4[nH]cc(c34)C[C@H]21 [TBR-760 sulfate] ; value = 92.01

---

# run description: Solid state (thermolytic) stability of TBR-760 salt forms, open container, UPLC peak purity and appearance
# Format: physicochemical
# settings: UPLC peak purity, 40° C. at 75% RH, open container, 2 wk
Where a name gives a salt, the structure may show the parent alone.
outcome measure: Purity, T = 2 wk
Give bare numbers.

Some solved cases for reference:
[[record]]
compound = "CCCN1C[C@H](CSCC(=O)NCCCC[C@@H](NC(=O)CSC[C@@H]2C[C@@H]3c4cccc5[nH]cc(c45)C[C@H]3N(CCC)C2)C(=O)N[C@H]2CSSC[C@@H](C(=O)N[C@H](C(N)=O)[C@@H](C)O)NC(=O)[C@H](CC)NC(=O)[C@H](CCCCN)NC(=O)[C@@H](Cc3c[nH]c4ccccc34)NC(=O)[C@H](Cc3ccc(O)cc3)NC2=O)C[C@@H]2c3cccc4[nH]cc(c34)C[C@H]21 [TBR-760 mesylate]"
reported_result = 97.49

[[record]]
compound = "CCCN1C[C@H](CSCC(=O)NCCCC[C@@H](NC(=O)CSC[C@@H]2C[C@@H]3c4cccc5[nH]cc(c45)C[C@H]3N(CCC)C2)C(=O)N[C@H]2CSSC[C@@H](C(=O)N[C@H](C(N)=O)[C@@H](C)O)NC(=O)[C@H](CC)NC(=O)[C@H](CCCCN)NC(=O)[C@@H](Cc3c[nH]c4ccccc34)NC(=O)[C@H](Cc3ccc(O)cc3)NC2=O)C[C@@H]2c3cccc4[nH]cc(c34)C[C@H]21 [TBR-760 sulfate]"
reported_result = 97.08

[[record]]
compound = "CCCN1C[C@H](CSCC(=O)NCCCC[C@@H](NC(=O)CSC[C@@H]2C[C@@H]3c4cccc5[nH]cc(c45)C[C@H]3N(CCC)C2)C(=O)N[C@H]2CSSC[C@@H](C(=O)N[C@H](C(N)=O)[C@@H](C)O)NC(=O)[C@H](CC)NC(=O)[C@H](CCCCN)NC(=O)[C@@H](Cc3c[nH]c4ccccc34)NC(=O)[C@H](Cc3ccc(O)cc3)NC2=O)C[C@@H]2c3cccc4[nH]cc(c34)C[C@H]21 [TBR-760 tosylate]"
reported_result = 97.57


# input for lookup
Entry CCCN1C[C@H](CSCC(=O)NCCCC[C@@H](NC(=O)CSC[C@@H]2C[C@@H]3c4cccc5[nH]cc(c45)C[C@H]3N(CCC)C2)C(=O)N[C@H]2CSSC[C@@H](C(=O)N[C@H](C(N)=O)[C@@H](C)O)NC(=O)[C@H](CC)NC(=O)[C@H](CCCCN)NC(=O)[C@@H](Cc3c[nH]c4ccccc34)NC(=O)[C@H](Cc3ccc(O)cc3)NC2=O)C[C@@H]2c3cccc4[nH]cc(c34)C[C@H]21 [TBR-760 acetate] ; Purity, T = 2 wk = 94.52
